Ref: PubChem BioAssay AID296

# System: MX-1 breast xenograft, nude mice, tumor weight T/C
# test.summary: NCI In Vivo Anticancer Drug Screen. Data for tumor model Human Mammary Carcinoma MX-1 Xenograft (intrarenal inoculation) in NU/NU Swiss (nude) mice
# details: endpoint: mean tumor weight change; dose: 36.0 mg/kg/injection; schedule: Q04DX003 (sc); vehicle: saline with Tween-80; higher = larger tumour
# Method: The antitumor activity of compounds was measured in mice bearing transplantable tumors. Survival or tumor size were measured and the results are expressed as the measurement made in the treated group (T) divided by the measurement made in the vehicle treated control group (C). The tumor model used in this assay is Human Mammary Carcinoma MX-1 Xenograft (intrarenal inoculation) in NU/NU Swiss (nude) mice
Inconclusive results are not listed.
reported.property: T/C

Solved entries:
CCCCCCCCSC1=C(Cl)C(=O)C(OC)=C(OC)C1=O; 113 % of control
CC(=O)OC1COC(NC(=O)N(CCCl)N=O)C(OC(C)=O)C1OC(C)=O (stereo unspecified); 82 % of control
NC(=O)/C=C/C(=O)c1c(Cl)cccc1Cl; 43 % of control
CN(C)CCN1C(=O)c2cccc3cc([N+](=O)[O-])cc(c23)C1=O; 55 % of control
C1CCC2C[N-]CCC2C1.C1CCC2C[N-]CCC2C1.C1CCC2C[N-]CCC2C1.C1CCC2C[N-]CCC2C1.[Cl][Rh][Cl] (stereo unspecified); 103 % of control

Field: next molecule
Just so you know, measured T/C for `O=C1c2cccc3cc([N+](=O)[O-])cc(c23)C(=O)N1CCN1CCCC1` came out at 96 % of control

* * *

# Tested on: MX-1 breast xenograft, nude mice, tumor weight T/C
# test.summary: NCI In Vivo Anticancer Drug Screen. Data for tumor model Human Mammary Carcinoma MX-1 Xenograft (intrarenal inoculation) in NU/NU Swiss (nude) mice
# details: endpoint: mean tumor weight change; dose: 1.0 mg/kg/injection; schedule: Q04DX003 (sc); vehicle: saline; higher = larger tumour
Records with an inconclusive call do not appear. *1 amine or outer side, *2 acyl side, *3 side chain or, on linkers, in order; H or OH if unused. Where a SMILES comes first, the peptide text is derived from it. Bridges are numbered along the chain shown (N, C = ends). Roman numbers before positions name the chains, in order. [ ]: non-standard residue; d: D form. Actinocin(1to9) = Cc1c2oc3c(C)ccc(C(=O)[*:2])c3nc-2c(C(=O)[*:1])c(N)c1=O; Actinocin(9to1) = Cc1c2oc3c(C)ccc(C(=O)[*:1])c3nc-2c(C(=O)[*:2])c(N)c1=O; aThr = C[C@H](O)[C@H](N)C(=O)O; NMeV = CN[CH](C(=O)O)C(C)C; Aze = O=C(O)[CH]1CCN1; Sar = CNCC(=O)O
For each entry below, report its T/C value.

Okay, here is my list. What is T/C for each of these?
1. C/C=C1\C[C@@H]2C(OC)Nc3cc(O)c(OC)cc3C(=O)N2C1 (some centres undefined)
2. Cc1c2oc3c(C)ccc(C(=O)N[C@@H]4C(=O)N[C@H](C(C)C)C(=O)N5CCC[C@H]5C(=O)N(C)CC(=O)N(C)[C@@H](C(C)C)C(=O)O[C@H]4C)c3nc-2c(C(=O)N[C@@H]2C(=O)N[C@H](C(C)C)C(=O)N3CCC[C@H]3C(=O)N(C)CC(=O)N(C)[C@@H](C(C)C)C(=O)O[C@H]2C)c(N)c1=O (I: [aThr][dV]P[Sar][NMeV] / II: [aThr][dV]P[Sar][NMeV]; ester I:1-I:C, II:1-II:C; linker I:N-II:N via Actinocin(9to1))
3. CO[C@H](C(=O)[C@@H](O)[C@@H](C)O)[C@@H]1Cc2cc3cc(OC4CC(OC5CC(O)C(O)C(C)O5)C(O)C(C)O4)c(C)c(O)c3c(O)c2C(=O)[C@H]1OC1CC(OC2CC(OC3CC(C)(O)C(O)C(C)O3)C(O)C(C)O2)C(O)C(C)O1 (some centres undefined)
4. Cc1c2oc3c(C)ccc(C(=O)NC4C(=O)NC(C(C)C)C(=O)N5CCCC5C(=O)N(C)CC(=O)N(C)C(C(C)C)C(=O)OC4C)c3nc-2c(C(=O)NC2C(=O)NC(C(C)C)C(=O)N3CCC3C(=O)N(C)CC(=O)N(C)C(C(C)C)C(=O)OC2C)c(N)c1=O (centres undefined) (I: TV[Aze][Sar][NMeV] / II: TVP[Sar][NMeV]; ester I:1-I:C, II:1-II:C; linker I:N-II:N via Actinocin(1to9); configuration not given here)

["78 % of control", "-46 % of control", "42 % of control", "47 % of control"]

* * *

# System: MX-1 breast xenograft, nude mice, tumor weight T/C
# test.summary: NCI In Vivo Anticancer Drug Screen. Data for tumor model Human Mammary Carcinoma MX-1 Xenograft (intrarenal inoculation) in NU/NU Swiss (nude) mice
# details: endpoint: mean tumor weight change; dose: 300.0 mg/kg/injection; schedule: Q04DX003 (sc); vehicle: saline with Tween-80; higher = larger tumour
Results filed as inconclusive are left out.
reported.property: T/C

Solved entries:
COc1ccc(S(=O)(=O)N=N/C=C2\C=CC=CN2O)cc1OC; 64 % of control
COc1cc(C(=O)N/N=C/c2cccc([N+](=O)[O-])c2)cc(OC)c1OC; 114 % of control
Clc1cc(Cl)c(C[N+]23CN4CN(CN(C4)C2)C3)cc1Cl; 169 % of control
COc1cc2c3c(cccc3c1)C(=O)N(CCN(C)C)C2=O; 100 % of control
Nc1ccc2c(c1)CN1C(=O)c3ccccc3C1=N2; 203 % of control
O=C(C/C(=N\C(=S)Nc1cc(C(F)(F)F)ccc1Cl)NO)N1CCCC1; 94 % of control

Okay, here is my list. What is T/C for each of these?
1. Cc1c2cc(Cl)c3ccccc3c2c[n+]2ccccc12
2. CCOC(=O)c1cn(C)c2c1C(O)=C(C(=O)OC)CC(=O)N2
3. CC(/C=C/c1ccccc1)=Nc1ccccc1
4. CCC(=O)Sc1ccccc1C(=O)Nc1ccc(Cl)cc1
5. CCCCCC1c2cc(O)ccc2OC1N1CCOCC1 (configuration not stated)

1: 82 % of control; 2: 80 % of control; 3: 83 % of control; 4: 63 % of control; 5: 72 % of control

The observed T/C for N#CCCSC(=S)C1CCCC1=N (configuration not stated) when tested with MX-1 breast xenograft, nude mice, tumor weight T/C stands at 76 % of control

* * *

# Test system: MX-1 breast xenograft, nude mice, tumor weight T/C
# test.summary: NCI In Vivo Anticancer Drug Screen. Data for tumor model Human Mammary Carcinoma MX-1 Xenograft (intrarenal inoculation) in NU/NU Swiss (nude) mice
# details: endpoint: mean tumor weight change; dose: 25.0 mg/kg/injection; schedule: Q01DX010 (sc); vehicle: saline; higher = larger tumour
Inconclusive results are not listed.
For each entry below, report its T/C value.

CC1CN1P1(N2CC2C)=NP(N2CC2C)(N2CC2C)=NP(N2CC2C)(N2CC2C)=N1 (stereo not given); 50 % of control
CN(CO)c1nc(N(C)CO)nc(N(C)CO)n1; 55 % of control
COc1cccc2c1C(=O)c1c(O)c3c(c(O)c1C2=O)C[C@H](O)C[C@@H]3OC1CC(N)C(O)C(C)O1 (stereo not given in full); 81 % of control

Okay, here is my list. What is T/C for each of these?
1. Cc1cn(C2CC3[O][Sn]([c]4ccccc4)([c]4ccccc4)[O]CC3O2)c(=O)[nH]c1=O (stereo not given)
2. CN(C)C(=O)c1cccc(COc2ccc(N3C(N)=NC(N)=NC3(C)C)cc2Cl)c1

["93 % of control", "49 % of control"]

* * *

# Test system: MX-1 breast xenograft, nude mice, tumor weight T/C
# test.summary: NCI In Vivo Anticancer Drug Screen. Data for tumor model Human Mammary Carcinoma MX-1 Xenograft (intrarenal inoculation) in NU/NU Swiss (nude) mice
# details: endpoint: mean tumor weight change; dose: 600.0 mg/kg/injection; schedule: Q04DX003 (sc); vehicle: saline with Tween-80; higher = larger tumour
Results filed as inconclusive are left out.
reported.property: T/C

Okay, here is my list. What is T/C for each of these?
1. NC(=S)N/N=C/c1ccc(OC(=O)COc2ccccc2)cn1
2. CC(=Nc1ccccc1)C1=C(O)C(Cc2ccccc2)NC1=O (stereo not drawn)
3. CCCCCC#CC1OC12CCCCC2 (stereo not drawn)
4. COc1cc(C(=O)N/N=C/c2cccc([N+](=O)[O-])c2)cc(OC)c1OC

103 % of control
48 % of control
101 % of control
67 % of control

Okay, here is my list. What is T/C for each of these?
1. COC(=O)Nc1ccc(Cc2ccc(NC(=O)OC)cc2)cc1
2. C[Si](C)(CCl)N[Si](C)(C)CCl
3. Cc1c2cc(Cl)c3ccccc3c2c[n+]2ccccc12
4. Cc1oc2c(C)c3oc(=O)cc(C)c3cc2c1CCl
5. N#CC(=C1C=CC(=NO)C=C1)c1ccc(Cl)cc1
6. CCCCCC1c2cc(O)ccc2OC1N1CCOCC1 (stereo not drawn)
7. CCCCCCCCCCCCCC#CC(=O)O

1: 119 % of control; 2: 35 % of control; 3: 67 % of control; 4: 75 % of control; 5: 156 % of control; 6: 71 % of control; 7: 77 % of control

Okay, here is my list. What is T/C for each of these?
1. CC1(C)CC2(C)OC2C2(C1)N=NC(=Nc1ccccc1)O2 (stereo not drawn)
2. CC(Cc1ccc(O)cc1)NCC(O)c1ccc(O)c(O)c1 (stereo not drawn)
3. CCOC(=O)c1[nH]c2cccc3c2c1CC(Br)C3=O (stereo not drawn)
4. CN(C)C1C(=O)C(C(=O)NP(=O)(NCCCO)N(CCCl)CCCl)=C(O)C2(O)C(=O)C3=C(O)c4c(O)cccc4C(C)(O)C3CC12 (stereo not drawn)
5. CC[C@H](CC[C@@H](C)C1CC[C@H]2[C@@H]3CC=C4C[C@@H](OP(=O)(N5CC5)N5CC5)CC[C@]4(C)[C@H]3CC[C@]12C)C(C)C (stereo partly drawn)

["81 % of control", "67 % of control", "100 % of control", "-100 % of control", "113 % of control"]

Okay, here is my list. What is T/C for each of these?
1. CCCCCCC(=O)CC(SCC)c1ccccc1Cl (stereo not drawn)
2. O=C(C/C(=N\C(=S)Nc1cc(C(F)(F)F)ccc1Cl)NO)N1CCCC1
3. N=c1c(C(=O)OCc2ccccc2)ncc(CCl)n1O

88 % of control
82 % of control
89 % of control

Okay, here is my list. What is T/C for each of these?
1. CC1(c2ccc(Cl)cc2)OC(=O)C(=Cc2ccc([N+](=O)[O-])s2)C(=O)O1 (stereo not drawn)
2. Nc1nc(=O)n(C2OC(CO)C(O)C2O)cc1F (stereo not drawn)
3. C[C@H](CCC[C@H](C)OS(=O)(=O)c1ccccc1)OS(=O)(=O)c1ccccc1
4. O/N=C/c1ccccc1O.O/N=C/c1ccccc1O.[Cu]

1: 44 % of control; 2: 77 % of control; 3: 48 % of control; 4: 72 % of control
